Field: IC50. Provide a value for each of the molecules that follow.
- TEST SYSTEM: ATX (Mus musculus (Mouse), UniProt Q9R1E6)
- MEASUREMENT PROTOCOL: Mice serum ATX inhibitory activity (IC50 determination)
One number for each entry, in nM.

Below, 5 molecules whose answers are already recorded.
MOLECULE: CC(C)[C@@H](NC(=O)c1cccc(C(F)(F)F)c1)C(=O)N1CCC2(CC1)C(=O)N(C)CC2c1ccccc1 (stereo partly shown)
RECORDED NUMBER: 16.4

MOLECULE: Cc1ccnc(C(=O)N[C@@H](C(=O)N2CCC3(CC2)CC(=O)N(C)CC3c2ccccc2)C(C)C)c1 (stereo partly shown)
RECORDED NUMBER: 15.9

MOLECULE: Cc1ccnc(C(=O)N[C@@H](C(=O)N2CCC3(CC2)CN(C)CC3c2cccnc2)C(C)C)c1 (stereo partly shown)
RECORDED NUMBER: 10.2

MOLECULE: CC(C)[C@@H](NC(=O)c1cc(C(F)(F)F)ccc1F)C(=O)N1CCC2(CC1)C(=O)N(CCN)C(=O)C2c1ccccc1 (stereo partly shown)
RECORDED NUMBER: 69.8

MOLECULE: CC(C)[C@@H](NC(=O)c1cc(C(F)(F)F)ccc1F)C(=O)N1CCC2(CC1)CN(C)C[C@@H]2c1ccc(F)cc1
RECORDED NUMBER: 12

Okay, here is my list. What is IC50 for each of these?
1. CCN1CC(c2ccc(F)cc2)C2(CCN(C(=O)[C@H](NC(=O)c3cc(C(F)(F)F)ccc3F)C(C)C)CC2)C1=O (stereo partly shown)
2. CCN1CC(c2ccc(F)cc2)C2(CCN(C(=O)[C@H](NC(=O)c3cc(C(F)(F)F)ccc3F)C(C)C)CC2)CC1=O (stereo partly shown)
3. CC(C)[C@@H](NC(=O)c1cc(C(F)(F)F)ccc1F)C(=O)N1CCC2(CC1)C(=O)N(C)CC2c1ccccc1 (stereo partly shown)

-- reply
1: 11.7; 2: 17.2; 3: 4
